biological target: Human rhinovirus A protease (Human rhinovirus sp.) (UniProt Q4U254); test: Percent inhibition of HRV-14 3C protease was measured at a concentration of 100 ug/mL(average of duplicates which agreed within +/- 10%)
Sequence (Q4U254 as listed by the source): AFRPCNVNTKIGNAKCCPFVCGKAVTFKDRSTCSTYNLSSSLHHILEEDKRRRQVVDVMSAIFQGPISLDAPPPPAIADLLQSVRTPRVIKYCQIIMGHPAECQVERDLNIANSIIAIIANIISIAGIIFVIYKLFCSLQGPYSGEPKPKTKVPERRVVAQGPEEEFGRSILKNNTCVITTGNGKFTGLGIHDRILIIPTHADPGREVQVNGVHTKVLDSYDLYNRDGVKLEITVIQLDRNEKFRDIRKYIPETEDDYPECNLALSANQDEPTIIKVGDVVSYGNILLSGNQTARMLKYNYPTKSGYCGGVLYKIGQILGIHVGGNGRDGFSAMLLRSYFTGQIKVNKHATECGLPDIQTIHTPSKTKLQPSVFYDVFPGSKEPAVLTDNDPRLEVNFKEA
metric.name: inhibition (%)
Use % as the unit, but write only the number.

[[record]]
compound = "CCOC(=O)/C=C/C(CCC(N)=O)NC(=O)OC(C)(C)C (stereo unspecified)"
numeric_value = 27

[[record]]
compound = "COC(=O)/C=C/C(CCC(N)=O)NC(=O)C(Cc1ccccc1)NC(=O)OC(C)(C)C (stereo unspecified)"
numeric_value = 42


Now examine the next entry.
Inquiry: Using the record for NC(=O)CCC(/C=C/S(=O)(=O)c1ccccc1)NC(=O)C(Cc1ccccc1)NC(=O)OCc1ccccc1 (stereo unspecified) , report its inhibition.
Reply text: 42
